tested on: HCT-116 cells stably transfected with a Luciferase reporter gene under the control of HIF-responsive element; assay: HIF-Luciferase Assay; type: cell-based; details: Homo sapiens, HCT-116, HIF-Luciferase Assay, HCT-116 reporter cells, overnight at 1% oxygen; potency groups
Parameter measured: IC50

Worked cases, answers included:
{"columns": ["Molecule", "IC50"],
 "data": [
  ["Cc1ccc(Cn2nc(-c3nc4ccccc4o3)cc2C)cc1", "≤ 1000 nM"],
  ["Cc1ccc(Cn2nc(-c3nc4cc5c(cc4[nH]3)OC(F)(F)O5)cc2C)cc1", "≤ 1000 nM"],
  ["Cc1ccc(Cn2nc(-c3nc4ccncc4[nH]3)cc2C)cc1", "1000 to 10000 nM"],
  ["Cc1ccc(Cn2nc(-c3nc(-c4ccc(Br)cc4)no3)cc2C)cc1", "≤ 1000 nM"],
  ["Cc1ccc(Cn2nc(-c3nc4ccc(-c5cccc(F)c5)cc4[nH]3)cc2C)cc1", "≤ 1000 nM"],
  ["Cc1ccc(Cn2nc(-c3nc(-c4ccc(N5CCCC(C)C5)cc4)no3)cc2C)cc1 (stereo not drawn)", "≤ 1000 nM"]
]}

Entry Cc1ccc(Cn2nc(-c3nc(-c4ccc(N5CCCCC5)cc4)no3)cc2C)cc1 — recorded IC50 = ≤ 1000 nM

Entry Cc1ccc(Cn2nc(-c3nc4ccc(Cl)cc4[nH]3)cc2C)cc1 — recorded IC50 = 1000 to 10000 nM

Entry Cc1ccc(Cn2nc(-c3nc(-c4ccccc4)co3)cc2C)cc1 — recorded IC50 = ≤ 1000 nM

###

test system: HCT-116 cells stably transfected with a Luciferase reporter gene under the control of HIF-responsive element; assay: HIF-Luciferase Assay; format: cell-based; settings: Homo sapiens, HCT-116, HIF-Luciferase Assay, HCT-116 reporter cells, overnight at 1% oxygen; potency groups
Listing of entries alongside the reported IC50.

{"columns": ["Compound", "Assay result"],
 "data": [
  ["Cc1ccc(C(C)n2nc(-c3nc(-c4ccc(Br)cc4)no3)cc2C)cc1 (stereo not drawn)", "1 to 10 µM"]
]}

Entry Cc1ccc(Cn2nc(-c3nc4ccc(N5CCOCC5)cc4[nH]3)cc2C)cc1 — recorded IC50 = 1 to 10 µM

Entry Cc1ccc(Cn2nc(-c3nc(-c4ccccc4)no3)cc2C)cc1 — recorded IC50 = ≤ 1 µM

Entry Cc1ccc(Cn2nc(-c3nc(-c4ccc(F)cc4)no3)cc2C)cc1 — recorded IC50 = ≤ 1 µM

###

Listing of entries alongside the reported IC50.
system: HCT-116 cells stably transfected with a Luciferase reporter gene under the control of HIF-responsive element; assay: HIF-Luciferase Assay; type: cell-based; conditions: Homo sapiens, HCT-116, HIF-Luciferase Assay, HCT-116 reporter cells, overnight at 1% oxygen; potency groups

{"columns": ["Compound", "IC50"],
 "data": [
  ["Cc1ccc(Cn2nc(-c3nc(-c4ccc(-c5ccccc5)cc4)c[nH]3)cc2C)cc1 [Example 67]", "≤ 1 µM"],
  ["Cc1ccc(Cn2nc(-c3nc(-c4ccc(N5CCOC5=O)cc4)no3)cc2C)cc1 [Example 25]", "≤ 1 µM"],
  ["Cc1ccc(Cn2nc(-c3nc4cc5ccccc5cc4[nH]3)cc2C)cc1 [Example 47]", "1 to 10 µM"],
  ["Cc1ccc(Cn2nc(-c3nc(-c4ccncc4)no3)cc2C)cc1 [Example 14]", "≤ 1 µM"],
  ["Cc1ccc(Cn2nc(C3=NC(Cc4ccc(Cl)cc4)CO3)cc2C)cc1 (centres unmarked) [Example 72]", "1 to 10 µM"]
]}

Entry Cc1ccc(Cn2nc(-c3nc(-c4ccc(OCc5ccc(Cl)cc5)cc4)no3)cc2C)cc1 [Example 2] — recorded IC50 = ≤ 1 µM

Entry Cc1ccc(Cn2nc(-c3nc4ccc(Br)cc4[nH]3)cc2C)cc1 [Example 37] — recorded IC50 = ≤ 1 µM

Entry Cc1ccc(Cn2nc(C3=NC(c4ccccc4)CO3)cc2C)cc1 (centres unmarked) [Example 69] — recorded IC50 = 1 to 10 µM

Entry Cc1ccc(Cn2nc(-c3nc4ccccc4[nH]3)cc2C)cc1 [Example 38] — recorded IC50 = 1 to 10 µM

Entry Cc1ccc(Cn2nc(-c3nc4cc5cn[nH]c5cc4[nH]3)cc2C)cc1 [Example 48] — recorded IC50 = 1 to 10 µM

###

test system: HCT-116 cells stably transfected with a Luciferase reporter gene under the control of HIF-responsive element; assay: HIF-Luciferase Assay; type: cell-based; conditions: Homo sapiens, HCT-116, HIF-Luciferase Assay, HCT-116 reporter cells, overnight at 1% oxygen; potency groups
Parameter measured: IC50

Worked cases, answers included:
{"columns": ["Smiles structure", "Assay result"],
 "data": [
  ["Cc1ccc(Cn2nc(-c3nc4ccc(-c5ccccc5Cl)cc4[nH]3)cc2C)cc1", "≤ 1000 nM"],
  ["Cc1ccc(Cn2nc(-c3nc4ccc(C(C)(C)C)cc4[nH]3)cc2C)cc1", "1000 to 10000 nM"],
  ["Cc1ccc(Cn2nc(-c3nc(-c4ccc(C5CCCCC5)cc4)no3)cc2C)cc1", "≤ 1000 nM"],
  ["Cc1ccc(Cn2nc(-c3nc(-c4ccc(N5CCCC5=O)cc4)no3)cc2C)cc1", "≤ 1000 nM"],
  ["Cc1ccc(Cn2nc(-c3nc(-c4ccc(Br)cc4)co3)cc2C)cc1", "≤ 1000 nM"]
]}

Entry Cc1ccc(Cn2nc(-c3nc4ccc(-c5ccc(F)cc5)cc4[nH]3)cc2C)cc1 — recorded IC50 = ≤ 1000 nM

Entry Cc1ccc(Cn2nc(-c3nc4ccc(C(F)(F)F)cc4[nH]3)cc2C)cc1 — recorded IC50 = ≤ 1000 nM

Entry Cc1ccc(Cn2nc(-c3nc(-c4ccc(-c5ccc(OC(F)(F)F)cc5)cc4)no3)cc2C)cc1 — recorded IC50 = ≤ 1000 nM

Entry Cc1ccc(Cn2nc(-c3nc(-c4cccnc4)no3)cc2C)cc1 — recorded IC50 = 1000 to 10000 nM

Entry Cc1ccc(Cn2nc(-c3nc(-c4ccc(OC(F)(F)F)cc4)no3)cc2C)cc1 — recorded IC50 = ≤ 1000 nM

Entry Cc1ccc(Cn2nc(-c3nc(-c4ccc(C(C)(C)C)cc4)co3)cc2C)cc1 — recorded IC50 = ≤ 1000 nM

Entry Cc1ccc(Cn2nc(-c3nc4ccc(-c5ccccc5)cc4[nH]3)cc2C)cc1 — recorded IC50 = ≤ 1000 nM

###

Listing of entries alongside the reported pIC50.
System: HCT-116 cells stably transfected with a Luciferase reporter gene under the control of HIF-responsive element
Test: HIF-Luciferase Assay
Assay type: cell-based
Conditions: Homo sapiens, HCT-116, HIF-Luciferase Assay, HCT-116 reporter cells, overnight at 1% oxygen; potency groups
Procedure: HCT-116 cells stably transfected with a Luciferase reporter gene under the control of HIF-responsive element were plated in white 96- or 384-well plates at 30,000 or 5,000 cells/well, respectively, in 50 μL/well media (RPMI with 10% fetal bovine serum and 100 μg/mL Hygromycin). […] Following the exposure to hypoxic conditions, 50 μL/well of Bright Glo reagent (Promega, Wisconsin, USA) was added to the wells and luminescence was measured after 5 min. […]
pIC50: −log10 of the molar value.

Worked cases, answers included:
{"columns": ["Smiles structure", "Assay result"],
 "data": [
  ["Cc1ccc(Cn2nc(-c3nc4c(C)cc(Br)cc4[nH]3)cc2C)cc1", "5.00 to 6.00"],
  ["Cc1ccc(Cn2nc(-c3nc4cc(-c5ccccc5)ccc4o3)cc2C)cc1", "≥ 6.00"],
  ["Cc1ccc(Cn2nc(-c3nc4ccc(C#N)cc4[nH]3)cc2C)cc1", "5.00 to 6.00"],
  ["Cc1ccc(Cn2nc(-c3nc4cc5oc6ccccc6c5cc4[nH]3)cc2C)cc1", "≥ 6.00"]
]}

Shift focus to the following entry.
Entry Cc1ccc(Cn2nc(-c3nc4cc(-c5cccc(Cl)c5)ccc4o3)cc2C)cc1 — recorded pIC50 = ≥ 6.00

###

system: HCT-116 cells stably transfected with a Luciferase reporter gene under the control of HIF-responsive element; assay: HIF-Luciferase Assay; type: cell-based; conditions: Homo sapiens, HCT-116, HIF-Luciferase Assay, HCT-116 reporter cells, overnight at 1% oxygen; potency groups
Listing of entries alongside the reported IC50.

Worked cases, answers included:
{"columns": ["Molecule", "Parameter measured", "Assay result"],
 "data": [
  ["Cc1ccc(Cn2nc(-c3nc(-c4ccc(OCC(F)(F)F)cc4)no3)cc2C)cc1 [Example 18]", "IC50", "≤ 1000 nM"],
  ["Cc1ccc(Cn2nc(-c3nc(-c4ccc(C(C)(C)C)cc4)no3)cc2C)cc1 [Example 4]", "IC50", "≤ 1000 nM"],
  ["Cc1ccc(Cn2nc(-c3nc4c(C)cccc4[nH]3)cc2C)cc1 [Example 40]", "IC50", "1000 to 10000 nM"],
  ["Cc1ccc(Cn2nc(-c3nc4ccc(N5CCCCC5)cc4[nH]3)cc2C)cc1 [Example 49]", "IC50", "≤ 1000 nM"],
  ["Cc1ccc(Cn2nc(-c3nc4ccc(-c5cccc(Cl)c5)cc4[nH]3)cc2C)cc1 [Example 63]", "IC50", "≤ 1000 nM"]
]}

Shift focus to the following entry.
Entry Cc1ccc(Cn2nc(-c3nc(-c4ccc(N5CCOCC5)cc4)no3)cc2C)cc1 [Example 21] — recorded IC50 = ≤ 1000 nM

Sourced from patent US8796253B2
